Origin of measurements: paper PMC10408569

Listed next: entries and their corresponding inhibition at 10 µM.
Test system: DU-145
Protocol Summary: NCI-60 anticancer screening (SRB)
Format: cell-based
Assay Setup: Homo sapiens; DU-145, prostate cancer; one dose 10 μM; read-out: Growth Inhibition Percentage (GI %)

Use these answered entries as a reference point.
Compound	Metric	Value
CCOC(=O)C1=C(N)N(c2ccccc2)C2=C(C(=O)CC(C)(C)C2)C1c1cccc(Cl)c1Cl (racemic) [10a]	inhibition at 10 µM	19%
CCOC(=O)C1=C(N)N(c2ccc(Cl)cc2)C2=C(C(=O)CC(C)(C)C2)C1c1ccc(N2CCOCC2)cc1 (racemic)	inhibition at 10 µM	< 10%
CCOC(=O)C1=C(N)N(c2ccc(C)cc2)C2=C(C(=O)CC(C)(C)C2)C1c1ccccc1Cl (racemic)	inhibition at 10 µM	< 10%
CCOC(=O)C1=C(N)N(c2ccc(Cl)cc2)C2=C(C(=O)CC(C)(C)C2)C1c1ccc(Cl)cc1 (racemic)	inhibition at 10 µM	12%
CCOC(=O)C1=C(N)N(c2ccc(Cl)cc2)C2=C(C(=O)CC(C)(C)C2)C1c1cccnc1 (racemic) [12f]	inhibition at 10 µM	< 10%

Provide inhibition at 10 µM value for the following compound: CCOC(=O)C1=C(N)N(c2ccc(Cl)cc2)C2=C(C(=O)CC(C)(C)C2)C1c1ccccc1Cl (racemic)
< 10%
